meta.source: patent US20260132200A1

Would you kindly list Raji Cytotoxicity Human T-cells [M] (EC50) for each of these binders?
Target: T1, human CD20 expressed on Raji cells (CD3-, CD20+ human B-cell line) (human, UniProt P11836 1-297)
T1 sequence: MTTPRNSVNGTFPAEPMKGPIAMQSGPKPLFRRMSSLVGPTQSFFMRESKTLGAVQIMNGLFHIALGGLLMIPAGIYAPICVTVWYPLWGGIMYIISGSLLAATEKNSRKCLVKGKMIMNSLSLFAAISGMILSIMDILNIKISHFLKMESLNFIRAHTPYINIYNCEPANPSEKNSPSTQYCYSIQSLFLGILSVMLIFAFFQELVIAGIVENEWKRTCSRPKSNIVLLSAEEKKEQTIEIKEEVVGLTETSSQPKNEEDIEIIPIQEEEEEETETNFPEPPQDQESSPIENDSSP
Assay: cell-based or functional assay
Numbers only, in M.

Illustrative cases are given below, each with its answer.
binder	result_units	numeric_result
BS3/20-004 (bispecific antibody, V domains shown) VH 1: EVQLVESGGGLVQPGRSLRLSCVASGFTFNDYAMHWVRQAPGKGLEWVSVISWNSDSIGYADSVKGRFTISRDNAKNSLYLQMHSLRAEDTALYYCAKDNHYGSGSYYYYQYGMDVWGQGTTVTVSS VH 2: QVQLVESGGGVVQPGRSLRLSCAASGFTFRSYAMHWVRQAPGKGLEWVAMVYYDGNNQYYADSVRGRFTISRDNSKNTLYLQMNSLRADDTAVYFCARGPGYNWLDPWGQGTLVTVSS VL: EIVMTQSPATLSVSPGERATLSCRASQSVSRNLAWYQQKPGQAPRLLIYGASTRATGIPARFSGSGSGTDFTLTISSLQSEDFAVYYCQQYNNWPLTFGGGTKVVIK	M	1.29e-11
BS3/20-005 (bispecific antibody, V domains shown) VH 1: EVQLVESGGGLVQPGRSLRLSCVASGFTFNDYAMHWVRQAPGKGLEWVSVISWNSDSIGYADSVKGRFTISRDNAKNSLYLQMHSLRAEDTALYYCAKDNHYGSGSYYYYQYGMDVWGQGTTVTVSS VH 2: QVQLVESGGGVVQPGRSLRLACVASGFTFRSYGMHWVRQAPGKGLQWVAMIYYDGKNKYYADSVRGRFTISRDNSKNTLYLQMNNLRVEDTAMYFCARGPGYNWLDPWGQGTLVTVSS VL: EIVMTQSPATLSVSPGERATLSCRASQRISSNLAWYQQKPGQAPRLLIYGASTRATGSPARFSGSGSGTDFTLTISSLQSEDVAVYYCQQHHNWPLTFGGGTKVEIK	M	1.95e-11
BS3/20-001 (bispecific antibody, V domains shown, also called CD3×CD20 bispecific antibody) VH 1: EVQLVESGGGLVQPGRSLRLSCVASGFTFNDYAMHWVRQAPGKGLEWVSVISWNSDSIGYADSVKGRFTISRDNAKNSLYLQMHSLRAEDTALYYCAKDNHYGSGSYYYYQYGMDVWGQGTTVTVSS VH 2: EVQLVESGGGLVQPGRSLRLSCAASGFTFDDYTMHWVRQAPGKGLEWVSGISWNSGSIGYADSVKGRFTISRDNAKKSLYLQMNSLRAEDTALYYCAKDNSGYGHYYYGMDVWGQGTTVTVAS VL: AEIVMTQSPATLSVSPGERATLSCRASQSVSSNLAWYQQKPGQAPRLLIYGASTRATGIPARFSGSGSGTEFTLTISSLQSEDFAVYYCQHYINWPLTFGGGTKVEIK	M	5.63e-11

Query :: GET /values?readout=Raji Cytotoxicity Human T-cells [M] (EC50)&item= BS3/20-003 (bispecific antibody, V domains shown) VH 1: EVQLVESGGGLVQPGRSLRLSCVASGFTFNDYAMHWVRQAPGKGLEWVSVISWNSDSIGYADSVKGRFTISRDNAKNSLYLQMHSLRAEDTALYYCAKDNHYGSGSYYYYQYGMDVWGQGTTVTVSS VH 2: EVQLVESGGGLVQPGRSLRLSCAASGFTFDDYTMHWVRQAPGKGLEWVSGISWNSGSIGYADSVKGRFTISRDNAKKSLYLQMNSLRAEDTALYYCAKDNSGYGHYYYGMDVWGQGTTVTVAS VL: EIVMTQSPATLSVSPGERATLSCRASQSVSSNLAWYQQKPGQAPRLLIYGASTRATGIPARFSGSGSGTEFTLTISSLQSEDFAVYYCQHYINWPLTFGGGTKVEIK
Result :: 7.38e-11
